All values here come from patent US9409952B2.

assay_comment: Metabolic stability in human hepatic microsome
Assay type: in vitro ADME
protocol_conditions: microsomes, pH 7.4; human hepatic microsome, NADPH(+); read-out: CL NADPH(+)
Starred links: 1 amine or outer side, 2 acyl side, 3 side chain; linkers in the order of their positions; H or OH if unused. Positions of bridges follow the written chain, without caps; N, C: chain ends. Non-standard residues stand in square brackets, D forms with d. Residues, ends and D or L forms follow the SMILES beside them. *: point of attachment. Phe(3-(CH2)4CO) = O=C([C@H](Cc1cccc(CCCCC(=O)[*:3])c1)N[*:1])[*:2]; NMeF = CN[C@@H](Cc1ccccc1)C(=O)O; NMeGABA = CN(CCCC(=O)[*:2])[*:1]; NMeI = CC[C@H](C)[C@H](NC)C(=O)O; NMeβAla = CN(CCC(=O)[*:2])[*:1]; NMeL = CN[C@@H](CC(C)C)C(=O)O; NMeV = CN[C@H](C(=O)O)C(C)C; NMeA = CN[C@@H](C)C(=O)O; Piperidide = C1CCN(*)CC1; Sar = CNCC(=O)O; tBu = CC(C)(C)*
measured_property: microsomal CLint at 1 uM (µL/min/mg)
Answers are plain numbers, in µL/min/mg.

Completed entries (count: 3):
* CC(C)C[C@@H]1NC(=O)[C@H](CC(C)C)N(C)C(=O)[C@H](C)N(C)C(=O)[C@H](Cc2ccccc2)NC(=O)C[C@@H](C(=O)N2CCCCC2)NC(=O)[C@H]([C@@H](C)O)NC(=O)[C@H](C(C)C)N(C)C(=O)CN(C)C(=O)[C@H](CC(C)C)N(C)C(=O)[C@@H](C(C)C)NC(=O)[C@H](Cc2ccccc2)N(C)C1=O [DP-616] (F[NMeA][NMeL]L[NMeF][dV][NMeL][Sar][NMeV]TD-Piperidide; lactam N-11) | 69
* CC(C)C[C@H]1C(=O)N[C@H](C(=O)N(C)[C@@H](Cc2ccccc2)C(=O)N[C@@H](C)C(=O)N2CCCCC2)CC(=O)N(C)CCC(=O)N[C@@H]([C@@H](C)O)C(=O)N(C)[C@@H](C)C(=O)N(C)[C@@H](CC(C)C)C(=O)N[C@@H](C(C)C)C(=O)N(C)[C@@H](Cc2ccccc2)C(=O)N[C@@H](Cc2ccccc2)C(=O)N1C [DP-379] ([NMeβAla]T[NMeA][NMeL]V[NMeF]F[NMeL]D[NMeF]A-Piperidide; lactam N-9) | 236
* CC[C@H](C)[C@H]1C(=O)N[C@@H](Cc2ccccc2)C(=O)N(C)[C@@H](Cc2ccccc2)C(=O)N[C@@H]([C@@H](C)O)C(=O)N2CCC[C@H]2C(=O)N[C@@H](CC(C)C)C(=O)N[C@H](C(=O)N2CCCCC2)Cc2cccc(c2)CCCCC(=O)NCC(=O)N(C)[C@@H](C(C)C)C(=O)N(C)[C@@H](CC(C)C)C(=O)N[C@@H](C)C(=O)N1C [DP-885] (G[NMeV][NMeL]A[NMeI]F[NMeF]TPL[Phe(3-(CH2)4CO)]-Piperidide; lactam N-11) | 75

Hi, could you look up microsomal CLint at 1 uM for each item in my list?
1. CC(C)C[C@H]1C(=O)N(C)[C@@H](CC(C)C)C(=O)N[C@H](C(=O)N2CCCCC2)CC(=O)N[C@@H](C(C)C)C(=O)N(C)[C@@H](Cc2ccccc2)C(=O)N[C@@H]([C@@H](C)O)C(=O)N(C)CC(=O)N[C@@H](COC(C)(C)C)C(=O)N1C [DP-693] (V[NMeF]T[Sar]S(tBu)[NMeL][NMeL]D-Piperidide; lactam N-8)
2. CC(C)C[C@H]1C(=O)N(C)[C@@H](CC(C)C)C(=O)N[C@H](C(=O)N2CCCCC2)CC(=O)N(C)CCCC(=O)N(C)[C@@H](Cc2ccccc2)C(=O)N[C@@H]([C@@H](C)O)C(=O)N(C)[C@@H](C)C(=O)N[C@@H](COC(C)(C)C)C(=O)N1C [DP-685] ([NMeGABA][NMeF]T[NMeA]S(tBu)[NMeL][NMeL]D-Piperidide; lactam N-8)

Response:
[246, 90]
